experimental.target: T1, TRAF2, Q12933
T1 chain: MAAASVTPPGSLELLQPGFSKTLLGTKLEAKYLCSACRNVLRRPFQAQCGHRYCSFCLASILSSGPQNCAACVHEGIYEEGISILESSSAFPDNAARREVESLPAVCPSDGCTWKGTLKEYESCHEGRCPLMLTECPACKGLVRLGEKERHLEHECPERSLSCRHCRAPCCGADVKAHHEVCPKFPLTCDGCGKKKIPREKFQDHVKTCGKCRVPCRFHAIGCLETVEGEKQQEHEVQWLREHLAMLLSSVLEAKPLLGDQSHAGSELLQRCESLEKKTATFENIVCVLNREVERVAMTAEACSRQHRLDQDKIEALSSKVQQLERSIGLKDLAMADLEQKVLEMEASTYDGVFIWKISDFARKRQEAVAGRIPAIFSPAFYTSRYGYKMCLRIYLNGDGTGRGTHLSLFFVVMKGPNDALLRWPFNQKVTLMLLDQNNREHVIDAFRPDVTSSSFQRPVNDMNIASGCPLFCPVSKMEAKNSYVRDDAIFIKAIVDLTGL
assay.explanation: median log2 fold change of GCK-ALFA target abundance (FLAG IP / Myc IP barcode read proportion) (log2 ratio); each designed protein is fused to an ALFA-tag nanobody in HEK293 cells to bring the named protein to FLAG-tagged glucokinase (GCK); Myc marks an untargeted standard; higher = target protein stabilised (more abundant)
condition.set: target protein: 3xFLAG-MCP-GCK-ALFA reporter; HEK293 landing pad (RPLP)
Over roughly 1,800 sequences, “median log2 fold change of GCK-ALFA target abundance (FLAG IP / Myc IP barcode read proportion)” has its median near 0.14; the lowest 2% begin near -0.84. Many of the other results were omitted from the sample, so the lowest values are more common in it than they were.
Form field: median log2 fold change (one value per entry).

- binder: "traf2_out_6_3_2518 (protein) MEESIRRDAAKVLENMGITTAEQLLRLVKANVNAVKKLVSRKDVDRADLAGAESVLNLTRAMVEVAAETLPDLTEEQKAEMLALIEEARELVEKKRKELE"
  median log2 fold change: -0.905
- binder: "traf2_out_13_95_1104 (protein) SAETAEKIMKIADEMLDKVEKILEELLKIAKEKGKLEEEIKEALHLARYQSINEAIHKLKELAKKYPEFKEELEAAIKEIEALKKEAGRKVAEILKEEKK"
  median log2 fold change: -0.841
- binder: "traf2_out_13_95_1096 (protein) SKELAEKIMEIADKMLDEVEKLLEELLKEAKKAGKLEEEVTEALNLARYRSINEAIHLLEELAKKHPEFKELYEKTIKEIKEIIKEAGKEVAKLIKEEKE"
  median log2 fold change: -0.702
- binder: "traf2_out_17_178_1700 (protein) SKEEIRKKISELTDELIDHADRYGTALLARLRAEGVLSPEELAALDAALASGSNRTLLATAEELIPRSAASPETRALLAEWRAETREIAKKIAEAYEKYE"
  median log2 fold change: 0.0128
- binder: "traf2_out_3_89_2291 (protein) SMEKEKKIKEAKERAERYVKGFEKNARRVAKEMLEEGHSLETLRGVLEAARTAIVETFGETLKEEGIDKETRDKILEELKKKLDEIVEEVVEEAKKRREE"
  median log2 fold change: -0.996
- binder: "traf2_out_13_95_1086 (protein) SKEVNEKIMEIADEMMEQILATLDALAKQVAGDPELAAAVAEARRLAETRGVNEAIHKLRELAKANPEHAELLNAAIAEIEAIKKEASKKISELLKEEEE"
  median log2 fold change: -0.0311
- binder: "traf2_out_20_3_2096 (protein) EELKKELEKALEEAEKLIKEAIKLADEETAKKLKELLKKLKEAKELPLDDQLVELSEVRRELLELAEKAKKEGKEELAKILEEAADKINRAMNLAYKIIE"
  median log2 fold change: 0.177

Taken from the supplement of paper PMC12632987.
